Origin of the recorded values: the supplement of paper PMC10127200

System: 786-O
Test name: Euclidean distance of Cell Painting phenotypic profile (signed KS, 77 features) to DMSO centroid (dimensionless distance); 5 or 10 uM (library dependent); higher = stronger phenotypic change vs DMSO (phenoactivity)
Conditions: 48 h
I'd be grateful if you could share measured Euclidean distance for these entries.
// response body must contain only the number

Input CC[C@H](C)[C@H](N)C1=N[C@H](C(=O)N[C@@H](CC(C)C)C(=O)N[C@H](CCC(=O)O)C(=O)N[C@H](C(=O)N[C@H]2CCCCNC(=O)[C@H](CC(N)=O)NC(=O)[C@@H](CC(=O)O)NC(=O)[C@H](Cc3cnc[nH]3)NC(=O)[C@@H](Cc3ccccc3)NC(=O)[C@H]([C@@H](C)CC)NC(=O)[C@@H](CCCN)NC2=O)[C@@H](C)CC)CS1 [Bacitracin] . Output Euclidean distance: 1.65

Input C[C@@H]1C[C@H]2[C@@H]3C[C@H](F)C4=CC(=O)C=C[C@]4(C)[C@@]3(F)[C@@H](O)C[C@]2(C)[C@@]1(O)C(=O)CO [Flumethasone] . Output Euclidean distance: 1.24

Input CC(C)Cc1ccc([C@@H](C)C(=O)NS(C)(=O)=O)cc1 [Reparixin (Repertaxin)] . Output Euclidean distance: 1.16

Input NC(=O)OCC(COC(N)=O)c1ccccc1 [Felbamate] . Output Euclidean distance: 1.13

Input Cc1cc(O)c2c(c1)C(=O)c1cccc(O)c1C2=O [Chrysophanic Acid] . Output Euclidean distance: 1.36

---

I'd be grateful if you could share measured Euclidean distance for these entries.
System: DU145
Test name: Euclidean distance of Cell Painting phenotypic profile (signed KS, 77 features) to DMSO centroid (dimensionless distance); 5 or 10 uM (library dependent); higher = stronger phenotypic change vs DMSO (phenoactivity)
Conditions: 48 h
Where a name gives a salt, the structure may show the parent alone.
// response body must contain only the number

Input O=C(O)CCCc1ccccc1 [Sodium Phenylbutyrate] . Output Euclidean distance: 1.02

Input NC(=O)[C@@H]1CCCN1C(=O)[C@H](Cc1c[nH]cn1)NC(=O)[C@@H]1CCC(=O)N1 [Protirelin] . Output Euclidean distance: 0.758

Input CCN1CC(CCN2CCOCC2)C(c2ccccc2)(c2ccccc2)C1=O (centres undefined) [Doxapram HCl] . Output Euclidean distance: 0.481

Input "N#Cc1ccc2[nH]c(O)c(-c3ccc(CN4CCOCC4)cn3)c2c1" . Output Euclidean distance: 2.02

Input CC1(C)S[C@@H]2[C@H](NC(=O)[C@H](NC(=O)N3CCN(S(C)(=O)=O)C3=O)c3ccccc3)C(=O)N2[C@H]1C(=O)O [Mezlocillin Sodium] . Output Euclidean distance: 1.43

Input N[C@@H](CCC(=O)O)C(=O)O [(S)-Glutamic acid] . Output Euclidean distance: 1.47

Input C=CC1=C(C(=O)O)N2C(=O)[C@@H](NC(=O)/C(=N\OCC(=O)O)c3csc(N)n3)[C@H]2SC1 [Cefixime] . Output Euclidean distance: 0.778

Input Cc1cc(/C=C/C#N)cc(C)c1Nc1ccnc(Nc2ccc(C#N)cc2)n1 [Rilpivirine] . Output Euclidean distance: 1.55

Input "COc1cc(N2CCC(N3CCN(C)CC3)CC2)ccc1Nc1ncc(Cl)c(Nc2ccccc2S(=O)(=O)C(C)C)n1" . Output Euclidean distance: 2.48

Input O=C(O)CCCc1cc2cc(Cl)ccc2n1S(=O)(=O)c1ccc2ncsc2c1 [Lanifibranor(IVA-337)] . Output Euclidean distance: 0.862

Input CC(=O)OCC(=O)[C@@]1(O)CC[C@H]2[C@@H]3CCC4=CC(=O)C=C[C@]4(C)[C@H]3[C@@H](O)C[C@@]21C [Prednisolone Acetate] . Output Euclidean distance: 2.13

Input Cn1c(=O)c2[nH]c(Br)nc2n(C)c1=O [Pamabrom] . Output Euclidean distance: 1.56

Input "COc1cc2c(cc1-c1c(C)noc1C)ncc1[nH]c(=O)n([C@H](C)c3ccccn3)c12" . Output Euclidean distance: 1.84

Input "Nc1nc(N)c(N=O)c(OCC2CCCCC2)n1" . Output Euclidean distance: 0.998
